Overview of recorded melting point for various compounds

Here is how some compounds turned out for melting point.
- compound: "C=C(C)[C@@H]1CC[C@]2(/C=N/NC(=S)Nc3ccc(Cl)c(Cl)c3)CC[C@]3(C)C(CCC4[C@@]5(C)CC[C@H](O)C(C)(C)C5CC[C@]43C)C12 (some centres unmarked) [Compound 8g]"
  melting point: "219.8 to 221.8 °C"
- compound: "C=C(C)[C@@H]1CC[C@]2(/C=N/NC(=S)Nc3ccc(Cl)cc3)CC[C@]3(C)C(CCC4[C@@]5(C)CC[C@H](O)C(C)(C)C5CC[C@]43C)C12 (some centres unmarked) [Compound 8b]"
  melting point: "212.5 to 214 °C"
- compound: "C=C(C)[C@@H]1CC[C@]2(/C=N/NC(=S)Nc3ccc(C)cc3)CC[C@]3(C)C(CCC4[C@@]5(C)CC[C@H](O)C(C)(C)C5CC[C@]43C)C12 (some centres unmarked) [Compound 8c]"
  melting point: "206.4 to 208.2 °C"
- compound: "C=C(C)[C@@H]1CC[C@]2(/C=N/NC(=O)Nc3cccc(C(F)(F)F)c3)CC[C@]3(C)C(CCC4[C@@]5(C)CC[C@H](O)C(C)(C)C5CC[C@]43C)C12 (some centres unmarked) [Compound 7e]"
  melting point: "223.4 to 225.1 °C"

Request: Supply measured melting point of C=C(C)[C@@H]1CC[C@]2(/C=N/NC(=O)Nc3cccc(C)c3)CC[C@]3(C)C(CCC4[C@@]5(C)CC[C@H](O)C(C)(C)C5CC[C@]43C)C12 (some centres unmarked) [Compound 7f] in your reply.
Response: 224.2 to 226 °C

Request: Supply measured melting point of C=C(C)[C@@H]1CC[C@]2(/C=N/NC(=S)Nc3ccc(F)cc3)CC[C@]3(C)C(CCC4[C@@]5(C)CC[C@H](O)C(C)(C)C5CC[C@]43C)C12 (some centres unmarked) [Compound 8a] in your reply.
Response: 209.3 to 211 °C

Request: Supply measured melting point of C=C(C)[C@@H]1CC[C@]2(/C=N/NC(=O)Nc3ccc(Cl)cc3)CC[C@]3(C)C(CCC4[C@@]5(C)CC[C@H](O)C(C)(C)C5CC[C@]43C)C12 (some centres unmarked) [Compound 7a] in your reply.
Response: 227.2 to 228.3 °C

Request: Supply measured melting point of C=C(C)[C@@H]1CC[C@]2(/C=N/NC(=O)Nc3ccc(C#N)cc3)CC[C@]3(C)C(CCC4[C@@]5(C)CC[C@H](O)C(C)(C)C5CC[C@]43C)C12 (some centres unmarked) [Compound 7b] in your reply.
Response: 236.5 to 238 °C
